Consider the following compounds and their measured pEC50 readings.
test system: contracted rat aorta; assay: In vitro rat aorta assay, relaxation of KCl-contracted aorta strips; format: cell-based; conditions: rat thoracic aorta strips contracted with 50 mM KCl, 1.25 mM CaCl2; concentration at which residual contraction is 50% of maximum
Kindly note that pEC50 refers to -log10 of the concentration in mol/L and answer with the value alone.

>  <Compound>
COC(=O)C1=C(C)NC(C)=C(C(=O)OC)C1c1ccccc1OCCCO[N+](=O)[O-] [Example XXVII]

>  <Test Target>
contracted rat aorta

>  <pEC50>
8.24

$$$$
>  <Compound>
CCOC(=O)C1=C(C)NC(C)=C(C(=O)OC)C1c1ccccc1OCC(C)(C)CO[N+](=O)[O-] (centres unmarked) [Example XXIII]

>  <Test Target>
contracted rat aorta

>  <pEC50>
7.55

$$$$
>  <Compound>
COC(=O)C1=C(C)NC(C)=C(C(=O)OC)C1c1cc(Cl)ccc1OCCO[N+](=O)[O-] [Example XV]

>  <Test Target>
contracted rat aorta

>  <pEC50>
7.07

$$$$
>  <Compound>
CCOC(=O)C1=C(C)NC(C)=C(C(=O)OCC)C1c1ccccc1OCCOCCOCCO[N+](=O)[O-] [Example XX]

>  <Test Target>
contracted rat aorta

>  <pEC50>
7.42

$$$$

Request: So what does the record say about pEC50 for CCOC(=O)C1=C(C)NC(C)=C(C(=O)OCC)C1c1ccccc1OCCCCCCCCCCO[N+](=O)[O-] [Example XXV] ?
Response: 7.17

Request: Now consider CCOC(=O)C1=C(C)NC(C)=C(C(=O)OCC)C1c1ccccc1OC[C@H]1CC[C@H](CO[N+](=O)[O-])CC1 [Example XXIV] .
Response: 8.11

Request: // repeat for COC(=O)C1=C(C)NC(C)=C(C(=O)OC)C1c1cc([N+](=O)[O-])ccc1OCCO[N+](=O)[O-] [Example XIV] and report
Response: 7.10

Request: Also COC(=O)C1=C(C)NC(C)=C(C(=O)OC)C1c1ccccc1OCCCCCCO[N+](=O)[O-] [Example XXX] ?
Response: 8.05

Request: Field entry: COC(=O)C1=C(C)NC(C)=C(C(=O)OC)C1c1ccccc1OC1CCCCC1O[N+](=O)[O-] (centres unmarked) [Example XXXVII]
Response: 7.17

Request: # iterate: CCOC(=O)C1=C(C)NC(C)=C(C(=O)OCC)C1c1ccccc1OCCO[N+](=O)[O-] [Example XXI]
Response: 7.85

Request: Queued: COC(=O)C1=C(C)NC(C)=C(C(=O)OC)C1c1cc(Br)ccc1OCCO[N+](=O)[O-] [XIX]
Response: 7.10

Request: Here is the next compound: COC(=O)C1=C(C)NC(C)=C(C(=O)OC)C1c1ccccc1OC[C@H]1CC[C@H](CO[N+](=O)[O-])CC1 [Example XXXII]
Response: 8.19

Request: Repeat with CCOC(=O)C1=C(C)NC(C)=C(C(=O)OC)C1c1ccccc1OCCCCO[N+](=O)[O-] (centres unmarked) [Example XXIX]
Response: 8.59

Request: Would you kindly repeat that for COC(=O)C1=C(C)NC(C)=C(C(=O)OC)C1c1cccc(OC)c1OCCO[N+](=O)[O-] [Example XVII] ?
Response: 7.06

* * *

test system: contracted rat aorta; test: In vitro rat aorta assay, relaxation of KCl-contracted aorta strips; type: cell-based; details: rat thoracic aorta strips contracted with 50 mM KCl, 1.25 mM CaCl2; concentration at which residual contraction is 50% of maximum
pEC50: −log10 of the molar value.
Decide by pEC50: equal to or exceeding 8 means Condition met, less means Condition not met.

>  <Molecule>
CCOC(=O)C1=C(C)NC(C)=C(C(=O)OCC)C1c1ccccc1OCC(C)(C)CO[N+](=O)[O-] [Example XXII]

>  <Class>
Condition not met

$$$$
>  <Molecule>
COC(=O)C1=C(C)NC(C)=C(C(=O)OC)C1c1ccccc1OC[C@@H](C)CO[N+](=O)[O-] [Example XXXVIII]

>  <Class>
Condition not met

$$$$
>  <Molecule>
COC(=O)C1=C(C)NC(C)=C(C(=O)OC)C1c1ccccc1OCCO[N+](=O)[O-] [Example VII]

>  <Class>
Condition not met

$$$$

Now for a further molecule.
Request: Threshold query (pEC50 >= 8) on COC(=O)C1=C(C)NC(C)=C(C(=O)OC)C1c1ccccc1OCCCCCCCCO[N+](=O)[O-] [Example XXXV]
Response: Condition met

* * *

Catalogue of pEC50 readings, one per entry.
tested on: contracted rat aorta; assay: In vitro rat aorta assay, relaxation of KCl-contracted aorta strips; type: cell-based; conditions: rat thoracic aorta strips contracted with 50 mM KCl, 1.25 mM CaCl2; concentration at which residual contraction is 50% of maximum
pEC50 is defined as minus the log10 of a concentration measured in mol/L.

Please review the following examples before continuing.
>  <Compound>
COC(=O)C1=C(C)NC(C)=C(C(=O)OC)C1c1ccccc1OCC(C)O[N+](=O)[O-] (stereo not drawn)

>  <Endpoint Value>
7.80

$$$$
>  <Compound>
CCOC(=O)C1=C(C)NC(C)=C(C(=O)OC)C1c1ccccc1OCCCO[N+](=O)[O-] (stereo not drawn)

>  <Endpoint Value>
7.92

$$$$

Here is another compound to look at.
Request: Hello, I am looking for reported pEC50 with contracted rat aorta for CCOC(=O)C1=C(C)NC(C)=C(C(=O)OCC)C1c1ccccc1OCCCO[N+](=O)[O-] . Could you help?
Response: 8.11
